molecular target: Tumor necrosis factor ligand superfamily member 11 (Mus musculus, UniProt O35235); experiment: Inhibition of recombinant mouse RANKL-induced TRAP activity in mouse RAW264.7 cells using 4-nitrophenyl phosphate as TRAP substrate preincubated for 4 days followed by substrate addition measured after 15 mins by ELISA reader analysis
Sequence (O35235 139-316 limits assumed): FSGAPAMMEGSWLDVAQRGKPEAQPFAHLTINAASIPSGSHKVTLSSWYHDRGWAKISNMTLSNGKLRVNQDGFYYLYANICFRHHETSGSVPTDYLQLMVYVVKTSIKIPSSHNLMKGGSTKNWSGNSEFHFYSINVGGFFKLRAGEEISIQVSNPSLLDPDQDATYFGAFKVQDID
The following compounds are listed with their measured IC50 values.
property_label: IC50 (µM)

> print(dat)
                                smiles.text  property.label  numeric.readout
1  C#Cc1cccc(-n2c(=O)oc3ccc(-c4ccc(F)cc4F)cc3c2=O)c1            IC50              3.7
2  O=c1oc2ccc(-c3ccc(F)cc3F)cc2c(=O)n1-c1cc(F)ccc1F            IC50             4.31
3  O=c1oc2ccc(-c3ccc(F)cc3F)cc2c(=O)n1-c1cccc(C(F)(F)F)c1            IC50             4.29
4        O=c1oc2ccccc2c(=O)n1-c1ccc(Cl)cc1F            IC50             10.6

The values you see were collected from BindingDB's records for doi:10.1016/j.bmc.2015.06.007.
